# Tested on: LOX IMVI melanoma
# Test Method Notes: NCI-60 one-dose screen, 48 h (100 = growth as untreated, 0 = no growth, -100 = all killed)
# Cond: 10 µM unless noted
This is part of a sample that, as a whole, favours compounds with a hit. Of some 83,000 tested, about 20% had one in any assay.
Output 1 for growth not less than 70%; output -1 otherwise.

O=C1c2c(c3c4cc(Br)ccc4[nH]c3c3ccc4ccccc4c23)C(=O)N1O = -1
COc1ccc(OC)c2ncccc12 = 1
CCCCc1ccc(NC(=O)C(F)(F)F)cc1 = 1
Cc1nc2cc(Nc3nc(N4CCCCC4)nc(N4CCOCC4)n3)ccc2n1Cc1ccccc1 = -1
COc1nc2c(cc1S(=O)(=O)c1ccccc1)CCc1c-2cnn1-c1ccccc1Cl = 1

Could you tell me if the measured growth of O=C1CN2CCC1C/C2=C\c1ccnc2c(Cl)cccc12 (stereo unspecified) reaches 70% or more?
1

Quick check, growth >= 70%? CCCCC(O)Cn1ncc(C(=O)OCC)c1NC(=O)NCc1ccccc1C(F)(F)F (stereo unspecified)
1

I'd appreciate it if you could say whether CCC12CCC3c4ccc(O)cc4CCC3C1CC(O)C2O (stereo unspecified) has growth at least equal to 70%.
1

Determine whether this molecule has growth no lower than 70%: COc1cccc(C2C3=C(COC3=O)N(CCO)c3cc4c(cc32)CCC4)c1 (stereo unspecified)
-1

Entry CCOC(=O)C1=C(C)N2C(=NC3=C(CCCC/C3=C\c3cc(OC)c(OC)c(OC)c3)C2c2cc(OC)c(OC)c(OC)c2)S1 (stereo unspecified) : is its growth no less than 70%?
1

---

Below is a list of entries, each paired with its recorded growth value.
# System: ACHN renal
# Test Method Notes: NCI-60 one-dose screen, 48 h (100 = growth as untreated, 0 = no growth, -100 = all killed)
# Cond: 10 µM unless noted
This is part of a sample that, as a whole, favours compounds with a hit. Of some 83,000 tested, about 20% had one in any assay.
Enter your answer as a number in %; do not include the unit.

// below: answered compounds
COc1cc(/C=C2\C(=O)N(c3c(Cl)cccc3Cl)c3ccccc32)cc(OC)c1O = 40.5
CCC12CCC3c4ccc(O)cc4CCC3C1CC(O)C2O (stereo not given) = 103
O=C(N/N=C/c1ccc(OC(F)F)c(OC2CCCC2)c1)c1cnn2c1NC(c1ccccc1)C2 (stereo not given) = 82.3
CCOC(=O)c1c(Cl)c2c(n1Cc1ccc(OC)cc1)-c1oncc1CCC2 = 73.9
Clc1ccc(C2=NN(c3ccccc3)[C@H](c3cn(-c4ccccc4)nc3-c3ccccc3)C2)cc1 = 103
COc1cc(C(=O)/C=C/c2c(-c3cccs3)nc3sccn23)cc(OC)c1OC = 12.4
FC(F)(F)c1cc(CNc2nc(Cl)ncc2Br)cc(C(F)(F)F)c1 = 94.5
COc1cc(-c2nc(SC(C)C)nc(Nc3cccc(C)c3)c2C#N)cc(OC)c1OC = 103
Cc1nn(-c2ccccc2)c2nc3nc4c(c(N)c3c(-c3ccc(Cl)cc3)c12)CCCC4 = 81.8

Now consider a different compound.
Please give the measured growth for this compound: COC(=O)c1c2c(c(C)[n+]([O-])c1C)C(=O)C=C(NCc1ccc(F)cc1)C2=O
-45.2

---

In this section we review reported growth values for a set of compounds.
# Tested on: HOP-92 NSCLC
# Test Method Notes: NCI-60 one-dose screen, 48 h (100 = growth as untreated, 0 = no growth, -100 = all killed)
# Cond: 10 µM unless noted
This is part of a sample that, as a whole, favours compounds with a hit. Of some 83,000 tested, about 20% had one in any assay.
Provide the reading as a plain figure in %.

Before answering, review these 5 worked examples.
O=c1nc(NO)[nH]c(=O)n1Cc1ccccc1 = -3.57
CC(=O)Nc1ccc(Sc2ccc([N+](=O)[O-])o2)cc1 = 40.2
COc1ccc(S(=O)(=O)c2ccc(C(N)=O)cc2)cc1NC(=O)c1[nH]c(C)c2c1CCCCC2=O = 23.6
C=CC(=O)N1CC2(CC(n3nc(-c4ccc(Oc5ccccc5)cc4)c4c(N)ncnc43)C2)C1 = 20
O=C(COc1ccc(/C=C2\CSc3ccccc3C2=O)cc1)c1ccc(Cl)cc1 = 122

# ---- query compound ----
# lookup: growth of CCCCCCCCCCCCCCNc1nc(CO)ncc1-c1ccc(C(F)(F)F)cc1
89.6

Origin of the recorded values: PubChem BioAssay (NCI)
